Property: Tm; scope: individual molecules
Assay: Thermal stability (Protein Thermal Shift assay)
Type: physicochemical
Conditions: VHH domains, first derivative analysis
Give just the number in °C; leave the unit off.

For orientation, consider the following solved cases.
{"columns": ["molecule", "Tm (°C)"],
 "data": [
  ["A05: ALPP/ALPPL2 targeting VHH domain, SEQ ID NO: 16; tested C-terminally His-tagged (protein, C-terminal His tag, tested C-terminally His-tagged) VHH: QVQLVESGGGLVQAGASLTLSCAASGFTFNTRSIVWFRQAPGKEREAVSCISKVAGSTYYGDSVQGRFSSSTDNAKNTVSLQMNSLKPEDTAVYTCAASFAPNCYGWSVAANMEYWGEGTMVTVSS", 69.5],
  ["B01: ALPP/ALPPL2 targeting VHH domain, SEQ ID NO: 20 (protein) VHH: QVQLVESGGGLVQAGGSLRLSCEVTRSPMPIDTMAWYRQAPGRQRELVAIISRSGSTNYADSVKGRFTISRNDTKSTMYKSTMYLKMNTLELEDTGVYYCNAVGLWNGAEYWGQGTQVTVSS", 82.7]
]}

Consider now this further molecule.
B11: ALPP targeting VHH domain, SEQ ID NO: 22 (protein) VHH: QVHLVESGGGSVQAGGSLRLSCAASGPSLSNYAMGWFRQAPGKEREFVAGISWGGGRTSYTDSVKGRFTISRDNAKNTVYLQMNNLKPEDTGVYYCAGRYGRGRNVEYEYDYWGQGTQVTVSS has a reported Tm of 77.4
